Listing of recorded percentage damage caused to the plant, AMARE by entry.
Test system: Amaranthus retoflexus (AMARE)
Assay: Pre-emergence herbicidal glasshouse test
Type: in vivo
Settings: 250 g/ha, sprayed after one day cultivation, evaluated after 13 days

Guide cases for percentage damage caused to the plant, AMARE, answers given:
compound="N#Cc1cn(Cc2ncc(Cl)cn2)c(CC2CCOC2)n1 (stereo not shown)" result="2 (2=21-40%)"
compound=FC(F)(F)CCCc1nc(Cl)c(Cl)n1Cc1ncc(Cl)cn1 result="5 (5=81-100%)"
compound=O=S(=O)(CCC(F)(F)F)c1nc(C(F)F)cn1Cc1ncc(Cl)cn1 result="1 (1=0-20%)"
compound=CC(C)Cc1nc(C(F)(F)F)cn1Cc1ncc(Cl)cn1 result="3 (3=41-60%)"
compound=CS(=O)(=O)CCc1nc(C(F)(F)F)cn1Cc1ncc(Cl)cn1 result="5 (5=81-100%)"

Give percentage damage caused to the plant, AMARE (Amaranthus retoflexus (AMARE)) of the following compound: ON=CCCc1nc(C(F)(F)F)cn1Cc1ncc(Cl)cn1 (single isomer, unassigned)
1 (1=0-20%)

Enter reported percentage damage caused to the plant, AMARE observed with Amaranthus retoflexus (AMARE) for FC(F)(F)CCCc1nc(Br)cn1Cc1ncc(Cl)cn1
1 (1=0-20%)

---

System: Amaranthus retoflexus (AMARE)
Experiment: Post-emergence herbicidal glasshouse test
Assay type: in vivo
Details: 250 g/ha, sprayed after 8 days cultivation, evaluated after 13 days
As shown below, each of these molecules has a reported percentage damage caused to the plant, AMARE value.

molecule="CCCCc1nc(C(F)(F)F)cn1Cc1ccc(Cl)cn1 [Compound 1.057]" targetdesc="Amaranthus retoflexus (AMARE)" result="3 (3=41-60%)"
molecule="C#CCON=CCCc1nc(C(F)(F)F)cn1Cc1ncc(Cl)cn1 (single isomer, unassigned) [Compound 1.028]" targetdesc="Amaranthus retoflexus (AMARE)" result="5 (5=81-100%)"
molecule="ON=CCCc1nc(C(F)(F)F)cn1Cc1ncc(Cl)cn1 (single isomer, unassigned) [Compound 1.005]" targetdesc="Amaranthus retoflexus (AMARE)" result="3 (3=41-60%)"

Which value of percentage damage caused to the plant, AMARE has been reported for O=S(=O)(CCC(F)(F)F)c1nc(C(F)F)cn1Cc1ncc(Cl)cn1 [Compound 1.009] in the records?
1 (1=0-20%)

What measured percentage damage caused to the plant, AMARE goes with CCCc1nc(C(F)(F)F)cn1Cc1ncc(Cl)cn1 [Compound 1.042] ?
3 (3=41-60%)

Fill in the blank: the reported percentage damage caused to the plant, AMARE of FC(F)(F)c1cn(Cc2ncc(Cl)cn2)c(CCl)n1 [Compound 1.071] is ____.
1 (1=0-20%)

---

System: Amaranthus retoflexus (AMARE)
Assay: Pre-emergence herbicidal glasshouse test
Assay type: in vivo
Conditions: 250 g/ha, sprayed after one day cultivation, evaluated after 13 days
Reported values of percentage damage caused to the plant, AMARE for individual entries

compound="FC(F)(F)c1cn(Cc2ncc(Cl)cn2)c(CCC=NOCC2CC2)n1 (single isomer, unassigned)" targetdesc="Amaranthus retoflexus (AMARE)" result="5 (5=81-100%)"
compound=CCCc1nc(C(F)(F)F)cn1Cc1ncc(Cl)cn1 targetdesc="Amaranthus retoflexus (AMARE)" result="4 (4=61-80%)"
compound=FC(F)COCCc1nc(C(F)(F)F)cn1Cc1ncc(Cl)cn1 targetdesc="Amaranthus retoflexus (AMARE)" result="5 (5=81-100%)"
compound=CC(C)(C#N)Cc1nc(C(F)(F)F)cn1Cc1ncc(Cl)cn1 targetdesc="Amaranthus retoflexus (AMARE)" result="3 (3=41-60%)"
compound=CCCCc1nc(C(F)F)cn1Cc1ncc(Cl)cn1 targetdesc="Amaranthus retoflexus (AMARE)" result="1 (1=0-20%)"

Kindly review the next compound as well.
Provide the documented percentage damage caused to the plant, AMARE with Amaranthus retoflexus (AMARE) as the system for CC(O)CCc1nc(C(F)(F)F)cn1Cc1ncc(Cl)cn1 (stereo not drawn)
4 (4=61-80%)
